Test system: Tyrosine-protein kinase ABL1 (Homo sapiens), P00519 [E255K]
Sequence (P00519 whole entry E255K): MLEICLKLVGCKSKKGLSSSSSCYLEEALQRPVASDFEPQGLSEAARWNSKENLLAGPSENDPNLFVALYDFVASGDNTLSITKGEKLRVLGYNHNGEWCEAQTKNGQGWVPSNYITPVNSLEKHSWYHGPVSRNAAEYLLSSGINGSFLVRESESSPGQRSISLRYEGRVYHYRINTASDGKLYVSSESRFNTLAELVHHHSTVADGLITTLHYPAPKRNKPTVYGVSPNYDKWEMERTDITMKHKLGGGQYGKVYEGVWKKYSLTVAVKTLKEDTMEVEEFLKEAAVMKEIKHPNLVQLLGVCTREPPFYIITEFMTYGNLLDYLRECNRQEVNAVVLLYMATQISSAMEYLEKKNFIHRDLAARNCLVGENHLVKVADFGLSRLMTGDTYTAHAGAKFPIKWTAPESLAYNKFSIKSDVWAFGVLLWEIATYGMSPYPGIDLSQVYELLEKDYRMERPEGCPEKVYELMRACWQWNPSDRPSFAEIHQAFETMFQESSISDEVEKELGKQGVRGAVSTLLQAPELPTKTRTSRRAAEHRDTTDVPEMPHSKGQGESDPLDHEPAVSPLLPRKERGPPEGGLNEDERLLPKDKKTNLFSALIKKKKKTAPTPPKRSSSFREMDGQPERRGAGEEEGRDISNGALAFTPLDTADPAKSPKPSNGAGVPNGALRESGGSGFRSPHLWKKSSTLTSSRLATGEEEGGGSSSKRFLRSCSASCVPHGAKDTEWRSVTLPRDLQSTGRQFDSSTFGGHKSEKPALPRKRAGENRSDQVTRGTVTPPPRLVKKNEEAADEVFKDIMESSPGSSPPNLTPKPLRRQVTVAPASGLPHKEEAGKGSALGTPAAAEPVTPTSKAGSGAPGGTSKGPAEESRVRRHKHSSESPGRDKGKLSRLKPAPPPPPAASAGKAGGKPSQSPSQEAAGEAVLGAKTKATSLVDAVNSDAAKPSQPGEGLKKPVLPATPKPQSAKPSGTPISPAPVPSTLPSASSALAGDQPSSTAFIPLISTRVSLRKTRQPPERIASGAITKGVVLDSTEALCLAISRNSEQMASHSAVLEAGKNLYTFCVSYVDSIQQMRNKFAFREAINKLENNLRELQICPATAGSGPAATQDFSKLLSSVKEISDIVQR
test_conditions: at 0.1 µM
measure_name: inhibition (%)

compound=Cc1nn(C)c2cc(N(C)c3ccnc(Nc4cccc(S(N)(=O)=O)c4)n3)ccc12 measured_value=27.9
compound="COc1ccc2cc(-c3c(-c4ccncc4)nc(-c4ccc([S+](C)[O-])cc4)n3C)ccc2c1 (stereo not given)" measured_value=2.75
compound=CNC(=O)c1cncc(/C=C/c2c(Cl)cccc2Cl)c1 measured_value=3.46
compound=CCn1c(-c2nonc2N)nc2cncc(C(=O)N3CCNCC3)c21 measured_value=-1.75
compound=N#Cc1c(NC(=O)c2cccc3ccccc23)sc2c1CCCC2 measured_value=4.44
compound=COc1ccc(-c2coc3ncnc(N)c23)cc1 measured_value=3.51
compound=CS(=O)(=O)CCN(CC#N)Cc1ccc(-c2ccc3ncnc(Nc4ccc(OCc5cccc(F)c5)c(Cl)c4)c3c2)o1 measured_value=0.94
compound=[O-][S+]1CCN(Cc2ccc(-c3ccc4ncnc(Nc5ccc(OCc6ccccc6)c(F)c5)c4c3)o2)CC1 measured_value=1.66
compound=Nc1nc(-c2ccccn2)c(-c2ccc3ncccc3n2)s1 measured_value=2.57
compound=Cc1nnc(-c2ccc(C)c(-c3ccc(C(=O)Nc4cccc(C#N)c4)cc3)c2)o1 measured_value=2

Origin of measurements: ChEMBL document CHEMBL1961873
